Overview of recorded logD for various molecules
Assay: Lipophilicity, log D of the compound at pH 7.4
Format: physicochemical
Conditions: buffer
# print the numeric value only

STRUCTURE NOTATION: Fc1cccc(F)c1Cn1ccc2c(OC3CCN(Cc4cscn4)CC3)ncnc21
logD: 3.58

Ask | Which measured logD value corresponds to Fc1c(Cl)cccc1Cn1ccc2c(OC3CCN(Cc4ccccn4)CC3)ncnc21 ?
Reply | 4.46

Ask | Also Cc1ccc(Cn2ccc3c(OC4CCN(Cc5cscn5)CC4)ncnc32)cc1 , if possible.
Reply | 3.9

Ask | Also Fc1cccc(CN2CCC(Oc3ncnc4c3ccn4Cc3ccccc3)CC2)n1 , if possible.
Reply | 3.83

Ask | Also Fc1cccc(Cn2ccc3c(OC4CCN(Cc5cscn5)CC4)ncnc32)c1F , if possible.
Reply | 3.45

Ask | Also Fc1ccc(CN2CCC(Oc3ncnc4c3ccn4Cc3ccccc3)CC2)nc1 , if possible.
Reply | 3.76

Ask | Also c1ccc(Cn2ccc3c(OC4CCNCC4)ncnc32)cc1 , if possible.
Reply | 1.24

Ask | Also Cc1ccccc1Cn1ccc2c(OC3CCN(Cc4cscn4)CC3)ncnc21 , if possible.
Reply | 3.9

Ask | Also c1ccc(Cn2ccc3c(OC4CCN(Cc5ccncc5)CC4)ncnc32)cc1 , if possible.
Reply | 3.69

Ask | Also c1ccc(Cn2cnc3c(OC4CCN(Cc5cscn5)CC4)ncnc32)cc1 , if possible.
Reply | 2.28

Ask | Also FC(F)(F)c1ccccc1Cn1ccc2c(OC3CCN(Cc4cscn4)CC3)ncnc21 , if possible.
Reply | 4.01

Ask | Also c1ccc(Cn2ccc3c(OC4CCN(Cc5cnccn5)CC4)ncnc32)cc1 , if possible.
Reply | 2.71

Ask | Also Cc1cn(Cc2ccccc2)c2ncnc(OC3CCN(Cc4cscn4)CC3)c12 , if possible.
Reply | 3.89

Ask | Also Fc1cccc(Cn2ccc3c(OC4CCN(Cc5cscn5)CC4)ncnc32)c1 , if possible.
Reply | 3.49

meta.source: ChEMBL document CHEMBL2010651
